# System: MST2;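 also: KINOMEscan kinase panel screen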
# Construct: gene STK3
# condition-description: concentration: 1 μM, replicates: in singlicate; n = 1
I'd be grateful if you could share measured %Inh for these entries.
Report the figure in % without appending any unit label.

The molecule COCCNC(=O)c1ccc(-c2cc(C(=O)NC3CC3)cc(F)c2C)cc1 [GW868318] on MST2: %Inh was 24

The molecule "Cn1ccc2ncnc(Oc3ccc(NC(=O)Nc4ccncc4)c(Cl)c3)c21" on MST2: %Inh was 0

The molecule NCCNS(=O)(=O)c1ccc(-c2ccnc3[nH]ccc23)cc1 [GSK977617] on MST2: %Inh was 0

The molecule O=C(c1ccc(-c2cc(-c3c[nH]nc3-c3ccccn3)ccn2)cc1)N1CCOCC1 [GW812171] on MST2: %Inh was 0

The molecule Fc1ccc(-c2ncn(CCCN3CCOCC3)c2-c2cccnc2)cc1 [SB-211743] on MST2: %Inh was 40

The molecule NS(=O)(=O)c1cccc(-c2ccc3nccc(-c4cccc(S(N)(=O)=O)c4)c3c2)c1 [GW867253] on MST2: %Inh was 0

The molecule O=c1cc(N2CCOCC2)nc2n(Cc3cccc(Cl)c3Cl)c(C3CC3)nn12 [GSK2358994] on MST2: %Inh was 41

The molecule CCCCCc1nc2c(N)ncnc2n1CCCCC [SKF-97255] on MST2: %Inh was 0

The molecule "Cc1cccc(-c2nc(-c3ccc(S(C)(=O)=O)cc3)sc2-c2ccncc2)c1" on MST2: %Inh was 0

The molecule c1ccc(-c2cc(-c3c[nH]nc3-c3ccccn3)ccn2)cc1 [GW576604] on MST2: %Inh was 0

The molecule Cc1nnc(-c2ccc3occ(-c4ccc(C(C)O)cc4)c3c2)o1 (stereo not drawn) on MST2: %Inh was 0

The molecule O=C1NC(=O)C(N2CCc3ccccc32)=C1c1cccc(Cl)c1 [SB-408010] on MST2: %Inh was 63

The molecule O=c1cc(N2CCOCC2)nc2n(Cc3cccc(F)c3)ccn12 [GSK2297430] on MST2: %Inh was 0

The molecule Cl.Cl.Cl.Fc1ccc(-c2ncn(C3CCNCC3)c2-c2ccnc(Nc3ccccc3)n2)cc1 [SB-238039] on MST2: %Inh was 0

The molecule COc1cc2ncn(-c3cc(OCc4sccc4Cl)c(C(N)=O)s3)c2cc1OC [GSK448459] on MST2: %Inh was 68

The molecule "O=C1Cc2cc(Nc3nc(NCc4cccc(S(=O)(=O)C(F)(F)F)c4)ncc3C(F)(F)F)ccc2N1" on MST2: %Inh was 27

The molecule Cn1cc(-c2ccc3c(c2)CCN3C(=O)Cc2ccccc2Cl)c2c(N)ncnc21 [GSK2608885] on MST2: %Inh was 64

The molecule CC(C)Oc1ccc2c(-c3ccnc(Nc4ccc(N5CCN(C)CC5)cc4)n3)cnn2n1 [GW696155] on MST2: %Inh was 0
